- Test system: CRE-bla reporter cells, beta-lactamase FRET, activation
- assay-text: activators of CRE-BLA reporter, dose response, counter-screen for S1P2 agonist project, cell-based, beta-lactamase FRET (AID 843)
Calls of active or inactive are those of the source. How the calls were made is not given here.
Hi! Could you answer with just one of these? active, inactive

Could you please tell me the result logged for CC(C)CCNC(=O)c1c(N)n(Cc2ccc3c(c2)OCO3)c2nc3ccccc3nc12 in this assay?
active

Could you please tell me the result logged for CCC(C)n1c(NC(=O)c2ccccc2)c(C#N)c2nc3ccccc3nc21 (stereo unspecified) in this assay?
active

Could you please tell me the result logged for Clc1ccc(-c2ccc(/C=N/Nc3cc(N4CCOCC4)nc(N4CCOCC4)n3)o2)cc1 in this assay?
inactive

Could you please tell me the result logged for CCOC(=O)CN(C(=O)CSc1nnc(COc2ccc(OC)cc2)n1C)c1ccccc1 in this assay?
inactive

Could you please tell me the result logged for COC(=O)c1cn[nH]c1NC(=S)Nc1ccccc1C in this assay?
inactive

Could you please tell me the result logged for O=S(=O)(Cc1ccc(Cl)cc1)NCC1CCCO1 (stereo unspecified) in this assay?
inactive

Could you please tell me the result logged for CCC(=O)c1cc2c(C)cc(=O)oc2c(C)c1O in this assay?
inactive

Could you please tell me the result logged for N#CCN1CCN(CC(=O)Nc2cccc3ccccc23)CC1 in this assay?
inactive

Could you please tell me the result logged for c1ccc(-c2nc3ccccn3c2NCc2ccc3c(c2)OCO3)cc1 in this assay?
inactive

Could you please tell me the result logged for COCCNC(=O)CN1CCN(C(c2ccccc2)c2ccccc2)CC1 in this assay?
inactive

Could you please tell me the result logged for COc1cccc(CNC(=O)CN(c2cc(C)cc(C)c2)S(=O)(=O)c2c(C)noc2C)c1 in this assay?
inactive

Could you please tell me the result logged for C=CCn1c(N)cc(=O)nc1SCC(=O)Nc1ccccc1 in this assay?
inactive

Could you please tell me the result logged for COc1cc2c(cc1OC)C1=C(C#N)CCC(=O)N1CC2 in this assay?
active

Could you please tell me the result logged for Cc1cccn2c(=O)c3cc(C(=O)NCCc4ccccc4)c(=N)n(CCCn4ccnc4)c3nc12 in this assay?
inactive

Could you please tell me the result logged for c1ccc(OCCSc2nnnn2-c2ccccc2)cc1 in this assay?
inactive

Could you please tell me the result logged for O=c1c(-c2nc3ccccc3s2)cccn1Cc1ccccc1 in this assay?
active

The origin of these recorded values is PubChem BioAssay AID843.
